Values were extracted from the C3SDB collision cross section collection.

- settings: [M+HCOO]-; instrument: DT; single field, calibrated with Agilent tune mix (Agilent)
property.name: collision cross section (N2) (Å²)

CCCCC/C=C\C/C=C\C/C=C\CCCCC(=O)OC[C@H](COP(=O)([O-])OCC[N+](C)(C)C)OC(=O)CCCCCCCCC/C=C\C/C=C\CCCCC; 293
CCCCCCCCCCCCC=CC[C@@H](O)[C@H](CO)NC(=O)CCCCCCCCCCCCCCCCCCCCC; 269.4
CCCCCCCCCCCCC=CC[C@@H](O)[C@H](COP(=O)([O-])OCC[N+](C)(C)C)NC(=O)CCCCCCCCCCCCCCCCCCCCCCC; 303
CCCCCC/C=C\CCCCCCCCCC(=O)O[C@H](COC(=O)CCCCCCC/C=C\CCCCCCCC)COP(=O)([O-])OCC[N+](C)(C)C; 291
CCCCCCCCCCCCC=CC[C@@H](O)[C@H](CO)NC(=O)CC=CCCCCCCCCCCCCCCCCCCCC; 274.4
CCCCC/C=C\C/C=C\CCCCCCCC(=O)OC[C@H](COP(=O)([O-])OCC[N+](C)(C)C)OC(=O)CCCCCCCCC/C=C\CCCCCC; 289.4
CCCCCCCCCCCCC=CC[C@@H](O)[C@H](COP(=O)([O-])OCC[N+](C)(C)C)NC(=O)CCCCCCCCCCCCCCCCCCCCCC; 300.3
CCCCCCCCCCCCC=CC[C@@H](O)[C@H](CO[C@@H]1O[C@H](CO)[C@@H](O)C(O)C1O)NC(=O)CCCCCCCCCCCCCCCCCCCCC (stereo partly drawn); 294.5
